B1: PLAGL1 (parent)
chain: CKDFLCQFCAQRFGRKDHLTRHTK

# Variants of: B1
# assay_text: protein stability index of a GFP-peptide fusion (GPS, HEK-293T) (PSI 1-6); higher = more stable;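 also: lentivirally expressed fusions sorted by FACS into six bins by GFP to DsRed ratio, PSI derived from sequencing read proportions per bin multiplied by bin number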
# condition_context: c terminus: a fixed tail appended
readout_type: protein stability index
Please reply with the number alone, leaving off any unit.

Prompt line: Param item = C9P ; retrieve measured protein stability index.
Response line: 3.17

Prompt line: Repeat for the following variant: K16C
Response line: 2.53

Prompt line: K2Y , same question.
Response line: 2.05

Prompt line: What about this variant? D3H
Response line: 2.07

Prompt line: Now give it for L19K too.
Response line: 3.13

Prompt line: Then this variant: H22L
Response line: 1.85

Prompt line: Would you mind doing C9H as well?
Response line: 2.11

Prompt line: Now consider R12N and answer again.
Response line: 2.22

Prompt line: Follow-up item: A10H
Response line: 1.9

Prompt line: Then what about the variant K16F ?
Response line: 2.17

Prompt line: Now this one: R15C
Response line: 1.82

Prompt line: Then this variant: C1G
Response line: 1.93

Prompt line: Same question for K24H please.
Response line: 2.41

Prompt line: Another: R15D
Response line: 2.24

Prompt line: And H22I ?
Response line: 1.76

Prompt line: Next variant up: K2A
Response line: 1.7

Prompt line: // query: K16M
Response line: 1.68

Prompt line: Cool, now C9T
Response line: 1.93

Prompt line: Follow-up item: A10L
Response line: 1.79

Prompt line: R15W , same question.
Response line: 1.61

Prompt line: Then this variant: Q7L
Response line: 1.29

Prompt line: Moving on to K16L
Response line: 2.49
